- testedOn: human catalytic domain ROCK II protein (amino acids 5-554) with a N-terminal GST tag (Homo sapiens)
- Sequence (O75116 5-554): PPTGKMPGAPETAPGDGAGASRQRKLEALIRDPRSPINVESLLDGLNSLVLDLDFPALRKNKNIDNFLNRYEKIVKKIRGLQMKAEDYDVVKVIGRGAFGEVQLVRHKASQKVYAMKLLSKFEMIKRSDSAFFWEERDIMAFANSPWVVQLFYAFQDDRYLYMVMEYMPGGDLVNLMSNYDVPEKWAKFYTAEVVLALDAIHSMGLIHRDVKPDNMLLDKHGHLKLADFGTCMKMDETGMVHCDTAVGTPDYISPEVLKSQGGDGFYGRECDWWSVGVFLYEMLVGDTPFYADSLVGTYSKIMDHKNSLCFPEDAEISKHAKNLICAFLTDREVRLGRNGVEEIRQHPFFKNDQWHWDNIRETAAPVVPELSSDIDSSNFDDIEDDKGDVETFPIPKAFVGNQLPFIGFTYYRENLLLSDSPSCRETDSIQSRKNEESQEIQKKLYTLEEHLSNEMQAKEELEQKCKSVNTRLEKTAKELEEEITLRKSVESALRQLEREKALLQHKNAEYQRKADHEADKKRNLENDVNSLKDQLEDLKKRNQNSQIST
- experiment: biochemical
measuredEndpoint: pIC50
Scale for pIC50: -log10 of concentration given in mol/L; no unit attached.

Example cases with answers are listed next.
Fill in the blank: the reported pIC50 of C[C@@H]1CN(c2ccncc2F)CCN1C(=O)N[C@H](C)c1cccc2c1CC(C)(C)O2 is ____.
8.30

Fill in the blank: the reported pIC50 of COc1cccc([C@@H](C)NC(=O)N2CCN(c3ccncc3F)[C@H](C)C2)c1 is ____.
6.82

Fill in the blank: the reported pIC50 of C[C@@H]1CN(c2ccnc(F)c2)CCN1C(=O)N[C@H](C)c1cccc2c1CCO2 is ____.
8.46

We next turn to a different compound, shown below.
Fill in the blank: the reported pIC50 of C[C@@H]1CN(c2ccnc(F)c2)CCN1C(=O)NCc1ccccc1Cl is ____.
6.73
